Here, each record is paired with measured pKd data.
target-of-assay: T1, Extracellular domain (ECD) of the canine IL-4 receptor alpha-V5 epitope-AviTag-His Tag (canine)
T1 construct: monomeric form isolated by size exclusion; also called canine IL-4RA-V5-Avi-His; canine IL-4RA
T1 chain: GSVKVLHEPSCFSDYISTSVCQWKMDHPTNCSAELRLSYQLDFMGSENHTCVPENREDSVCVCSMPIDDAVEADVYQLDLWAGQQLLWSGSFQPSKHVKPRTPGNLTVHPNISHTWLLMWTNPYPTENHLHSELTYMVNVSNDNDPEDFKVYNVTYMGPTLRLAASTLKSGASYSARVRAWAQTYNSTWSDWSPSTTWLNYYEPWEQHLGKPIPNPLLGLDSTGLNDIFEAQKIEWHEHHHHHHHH
method-summary: SPR, Fab-SASA captured on BSA;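 also: biacore T200 SPR, Fab-SASA variants from E. coli conditioned medium captured on BSA-coated CM5 chip, canine IL-4RA injected 120 s then 420 s dissociation, 1:1 model fit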
pKd: −log10 of the molar value.
property-name: pKd

binder: TB640_005 Fab-SASA VL-I33V (Fab, V domains shown, not shown: SASA tag then His-tag) VH: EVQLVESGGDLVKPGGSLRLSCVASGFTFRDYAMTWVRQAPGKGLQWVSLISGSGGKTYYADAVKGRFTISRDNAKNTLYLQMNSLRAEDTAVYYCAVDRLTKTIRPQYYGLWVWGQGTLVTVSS VL: DIVMTQTPLSLSVSPGETASISCRSSQSLLYSVGYNYLDWYLQKPGQSPQGLIYLGSKRASGVPDRFSGSGSGTDFTLRISRVEANDTGVYYCMQGLQSPLTFGQGTKLEIKR
data-value: 7.90
--
binder: TB640_005 Fab-SASA VH-K103R (Fab, V domains shown, not shown: SASA tag then His-tag) VH: EVQLVESGGDLVKPGGSLRLSCVASGFTFRDYAMTWVRQAPGKGLQWVSLISGSGGKTYYADAVKGRFTISRDNAKNTLYLQMNSLRAEDTAVYYCAVDRLTRTIRPQYYGLWVWGQGTLVTVSS VL: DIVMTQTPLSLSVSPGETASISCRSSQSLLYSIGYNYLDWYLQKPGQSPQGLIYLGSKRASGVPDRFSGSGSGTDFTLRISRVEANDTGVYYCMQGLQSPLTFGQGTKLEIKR
data-value: 8.15
